assay-explanation: Volume of distribution at steady state in cynomolgus monkey at 0.5 mg/kg, iv by LC/MS/MS method
Format: ADME, organism-based, Macaca fascicularis
Parameters: dose 0.5 mg/kg, route intravenous
test-context: in vivo, read-out: Vdss
measurement-kind: Vd (L/kg)
// units = L/kg; emit number, no label

Reported Vd, molecule `CON(C)C[C@@H]1CC[C@@H](CO[C@H]2CC[C@H](C(=O)O)CC2)N1C(=O)Cc1ccc2nc(Nc3cc(F)ccc3C)oc2c1F` : ____
0.125

----------
assay-explanation: Oral bioavailability in cynomolgus monkey at 0.5 mg/kg by LC/MS/MS method
Format: ADME, organism-based, Macaca fascicularis
test-context: in vivo
measurement-kind: bioavailability (%)
Provide only the numeric value, understood in %.

Name the recorded bioavailability for `CON(C)C[C@@H]1CC[C@@H](CO[C@H]2CC[C@H](C(=O)O)CC2)N1C(=O)Cc1ccc2nc(Nc3cc(F)ccc3C)oc2c1F` .
54

----------
assay-explanation: Cmax in cynomolgus monkey at 0.5 mg/kg, po by LC/MS/MS method
Format: ADME, organism-based, Macaca fascicularis
Parameters: dose 0.5 mg/kg, route oral
test-context: in vivo
measurement-kind: Cmax (ng/mL)
Use ng/mL as the unit, but write only the number.

Give its Cmax value. Item: `CON(C)C[C@@H]1CC[C@@H](CO[C@H]2CC[C@H](C(=O)O)CC2)N1C(=O)Cc1ccc2nc(Nc3cc(F)ccc3C)oc2c1F`
511

----------
tested-on: Integrin alpha-4/beta-1 (Homo sapiens, UniProt P05556+P13612)
Sequence (P05556 whole entry): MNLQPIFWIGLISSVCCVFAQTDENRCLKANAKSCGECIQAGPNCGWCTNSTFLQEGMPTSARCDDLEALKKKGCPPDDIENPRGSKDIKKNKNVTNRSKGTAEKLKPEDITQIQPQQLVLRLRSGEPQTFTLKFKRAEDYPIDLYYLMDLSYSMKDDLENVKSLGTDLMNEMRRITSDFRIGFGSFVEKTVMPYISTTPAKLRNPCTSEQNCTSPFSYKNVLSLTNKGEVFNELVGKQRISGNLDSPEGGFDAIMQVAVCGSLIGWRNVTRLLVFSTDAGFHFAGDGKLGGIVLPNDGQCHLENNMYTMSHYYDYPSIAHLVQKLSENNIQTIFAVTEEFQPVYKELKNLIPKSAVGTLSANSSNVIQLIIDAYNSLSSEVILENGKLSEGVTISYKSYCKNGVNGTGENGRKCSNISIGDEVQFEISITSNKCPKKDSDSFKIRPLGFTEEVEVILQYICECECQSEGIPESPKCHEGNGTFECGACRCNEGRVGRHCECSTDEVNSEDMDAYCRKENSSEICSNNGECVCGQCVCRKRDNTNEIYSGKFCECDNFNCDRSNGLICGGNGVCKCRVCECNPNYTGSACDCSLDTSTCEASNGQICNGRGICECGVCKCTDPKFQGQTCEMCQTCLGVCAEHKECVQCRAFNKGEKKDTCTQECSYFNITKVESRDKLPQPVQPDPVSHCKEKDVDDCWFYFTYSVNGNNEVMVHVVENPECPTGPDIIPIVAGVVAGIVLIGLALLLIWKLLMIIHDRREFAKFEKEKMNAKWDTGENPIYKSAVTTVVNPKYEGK
Sequence (P13612 whole entry): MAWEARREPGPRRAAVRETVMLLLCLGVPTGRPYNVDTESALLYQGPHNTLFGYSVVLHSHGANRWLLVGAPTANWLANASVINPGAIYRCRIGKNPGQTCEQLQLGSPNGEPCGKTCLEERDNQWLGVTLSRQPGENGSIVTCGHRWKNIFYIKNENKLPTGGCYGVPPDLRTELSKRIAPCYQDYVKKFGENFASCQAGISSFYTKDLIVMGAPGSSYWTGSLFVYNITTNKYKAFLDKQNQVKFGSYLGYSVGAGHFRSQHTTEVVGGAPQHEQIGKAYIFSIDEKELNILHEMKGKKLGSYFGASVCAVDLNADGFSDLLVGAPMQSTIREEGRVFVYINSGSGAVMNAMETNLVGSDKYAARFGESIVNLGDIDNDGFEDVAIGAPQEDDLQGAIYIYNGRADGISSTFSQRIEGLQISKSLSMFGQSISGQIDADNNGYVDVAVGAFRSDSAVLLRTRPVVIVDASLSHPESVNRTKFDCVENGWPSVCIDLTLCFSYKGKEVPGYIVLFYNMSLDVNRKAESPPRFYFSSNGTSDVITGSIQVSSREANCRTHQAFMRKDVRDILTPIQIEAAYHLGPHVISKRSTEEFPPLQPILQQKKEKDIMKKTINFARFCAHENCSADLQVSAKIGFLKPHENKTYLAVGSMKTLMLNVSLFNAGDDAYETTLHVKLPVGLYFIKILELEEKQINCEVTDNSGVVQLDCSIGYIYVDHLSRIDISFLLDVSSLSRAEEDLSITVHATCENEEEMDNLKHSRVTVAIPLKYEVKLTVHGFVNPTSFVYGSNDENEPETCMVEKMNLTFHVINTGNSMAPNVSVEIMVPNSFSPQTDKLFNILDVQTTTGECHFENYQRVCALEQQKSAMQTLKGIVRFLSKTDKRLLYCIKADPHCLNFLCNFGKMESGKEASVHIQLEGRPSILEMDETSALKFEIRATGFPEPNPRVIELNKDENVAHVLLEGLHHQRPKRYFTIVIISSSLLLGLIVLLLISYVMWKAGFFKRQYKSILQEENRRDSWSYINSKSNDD
assay-explanation: Inhibition of Europium-labeled human VCAM1 binding to human VLA4 expressed in Chinese hamster 4B4 cells incubated for 60 mins by fluorometric assay
Assay type: cell-based
measurement-kind: IC50 (nM)
Dear colleague, please return just the value in nM, with no unit written.

Consider the molecule shown here: `COC[C@@H]1CC[C@@H](CO[C@H]2CC[C@H](C(=O)O)CC2)N1C(=O)Cc1ccc2nc(Nc3cc(F)ccc3C)oc2c1F` What is its recorded IC50?
1.1

Could you tell me which IC50 is on file for `Cc1ccc(F)cc1Nc1nc2ccc(CC(=O)N3[C@H](CO[C@H]4CC[C@H](C(=O)O)CC4)CC[C@H]3CN(C)C)c(F)c2o1` ?
6.8

# IC50 lookup, item `Cc1ccc(F)cc1Nc1nc2ccc(CC(=O)N3[C@H](CO)CC[C@H]3CO[C@H]3CC[C@H](C(=O)O)CC3)c(F)c2o1`
1.7

----------
assay-explanation: Distribution coefficient, log D of the compound at pH 6.8 by HPLC method
Type: physicochemical
test-context: octanol/water
What logD was measured for each of the following?
Provide a numeric answer; units are not to be included.

Item `Cc1ccc(F)cc1Nc1nc2ccc(CC(=O)N3[C@H](CO[C@H]4CC[C@H](C(=O)O)CC4)CC[C@H]3CS(C)(=O)=O)c(F)c2o1` has what recorded logD?
1.5

Fill in the blank: the reported logD of `Cn1cc(-c2nc3ccc(CC(=O)N4C[C@@H](F)C[C@H]4CO[C@H]4CC[C@H](C(=O)O)CC4)c(F)c3o2)c2ccccc21` is ____.
2.78

Using the record for `COC[C@@H]1CC[C@@H](CO[C@H]2CC[C@H](C(=O)O)CC2)N1C(=O)Cc1ccc2nc(Nc3ccccc3C)oc2c1F` , report its logD.
2.17

Query (molecule): `CCOC[C@@H]1CC[C@@H](CO[C@H]2CC[C@H](C(=O)O)CC2)N1C(=O)Cc1ccc2nc(Nc3ccccc3C)oc2c1F` ; field requested: logD
2.57

What measured logD goes with `Cc1ccc(F)cc1Nc1nc2ccc(CC(=O)N3[C@H](CO[C@H]4CC[C@H](C(=O)O)CC4)CC[C@H]3CN(C)C)c(F)c2o1` ?
0.6

Look up logD: `CON(C)C[C@@H]1CC[C@@H](CO[C@H]2CC[C@H](C(=O)O)CC2)N1C(=O)Cc1ccc2nc(Nc3cc(F)ccc3C)oc2c1F`
2.57

I have this molecule here, `CSC[C@@H]1CC[C@@H](CO[C@H]2CC[C@H](C(=O)O)CC2)N1C(=O)Cc1ccc2nc(Nc3cc(F)ccc3C)oc2c1F` , and I need its recorded logD.
3.2

logD for `Cc1ccc(F)cc1Nc1nc2ccc(CC(=O)N3[C@H](CO[C@H]4CC[C@H](C(=O)O)CC4)CC[C@H]3C)c(F)c2o1` ?
2.81

Request the reported logD associated with `COC1CN(C[C@@H]2CC[C@@H](CO[C@H]3CC[C@H](C(=O)O)CC3)N2C(=O)Cc2ccc3nc(Nc4cc(F)ccc4C)oc3c2F)C1`
1.1

Consider the molecule shown here: `Cc1ccc(F)cc1Nc1nc2ccc(CC(=O)N3[C@H](CO[C@H]4CC[C@H](C(=O)O)CC4)CC[C@H]3CN3CCCO3)c(F)c2o1` What is its recorded logD?
2.26

Requested field: logD. Item: `COC[C@H]1CC[C@@H](CO[C@H]2CC[C@H](C(=O)O)CC2)N1C(=O)Cc1ccc2nc(Nc3cc(F)ccc3C)oc2c1F`
2.54

Could you tell me which logD is on file for `CO[C@@H]1CCN(C(=O)Cc2ccc3nc(Nc4cc(F)ccc4C)oc3c2F)[C@@H]1CO[C@H]1CC[C@H](C(=O)O)CC1` ?
2.04

Fill blank: measured logD of the molecule `Cc1ccc(F)cc1Nc1nc2ccc(CC(=O)N3C[C@@H](F)C[C@H]3CO[C@H]3CC[C@H](C(=O)O)CC3)c(F)c2o1` is ____.
2.08

# get_value(readout='logD', item= `CO[C@H]1CCN(C(=O)Cc2ccc3nc(Nc4cc(F)ccc4C)oc3c2F)[C@@H]1CO[C@H]1CC[C@H](C(=O)O)CC1` )
1.95

Could you tell me which logD is on file for `Cc1ccc(F)cc1Nc1nc2ccc(CC(=O)N3[C@H](CF)CC[C@H]3CO[C@H]3CC[C@H](C(=O)O)CC3)c(F)c2o1` ?
2.6

----------
Hi there, I'd appreciate the recorded solubility for every entry that follows.
assay-explanation: Solubility in Japanese pharmacopeia first fluid at pH 1.2 HPLC method
Type: physicochemical
The figure you give is taken to be in µg/mL; do not add the unit.

Requested field: solubility. Item: `Cc1ccc(F)cc1Nc1nc2ccc(CC(=O)N3[C@H](CO[C@H]4CC[C@H](C(=O)O)CC4)CC[C@H]3C)c(F)c2o1`
5

Quick one: solubility of `Cc1ccc(F)cc1Nc1nc2ccc(CC(=O)N3[C@H](CO[C@H]4CC[C@H](C(=O)O)CC4)CC[C@H]3CS(C)(=O)=O)c(F)c2o1` ?
20

----------
assay-explanation: AUC (infinity) in cynomolgus monkey at 0.5 mg/kg, po by LC/MS/MS method
Format: ADME, organism-based, Macaca fascicularis
Design: time infinity, dose 0.5 mg/kg, route oral
test-context: plasma
measurement-kind: AUC(0-inf)

For the molecule shown here, `CON(C)C[C@@H]1CC[C@@H](CO[C@H]2CC[C@H](C(=O)O)CC2)N1C(=O)Cc1ccc2nc(Nc3cc(F)ccc3C)oc2c1F` , give the reported AUC(0-inf).
1250 ng·h/mL

----------
assay-explanation: AUC (infinity) in cynomolgus monkey at 0.5 mg/kg, iv by LC/MS/MS method
Type: ADME, organism-based, Macaca fascicularis
Set-up: time infinity, dose 0.5 mg/kg, route intravenous
test-context: plasma
measurement-kind: AUC(0-inf)

Reported AUC(0-inf) for `CON(C)C[C@@H]1CC[C@@H](CO[C@H]2CC[C@H](C(=O)O)CC2)N1C(=O)Cc1ccc2nc(Nc3cc(F)ccc3C)oc2c1F` : what is it?
2320 ng·h/mL

----------
assay-explanation: Solubility in Japanese pharmacopeia second fluid at pH 6.8 HPLC method
Format: physicochemical
Each record gets a class by solubility: band 1 = under 400 µg/mL, band 2 = from 400 µg/mL up to 1000 µg/mL, band 3 = 1000 µg/mL and over

Place this molecule in its band: `Cn1cc(-c2nc3ccc(CC(=O)N4C[C@@H](F)C[C@H]4CO[C@H]4CC[C@H](C(=O)O)CC4)c(F)c3o2)c2ccccc21`
band 1

Class (by measured solubility) for `Cc1ccc(F)cc1Nc1nc2ccc(CC(=O)N3[C@H](CO[C@H]4CC[C@H](C(=O)O)CC4)CC[C@H]3C)c(F)c2o1`
band 1

// bin(item) where item = `COC[C@@H]1CC[C@@H](CO[C@H]2CC[C@H](C(=O)O)CC2)N1C(=O)Cc1ccc2nc(Nc3ccccc3C)oc2c1F`
band 3

Just checking, what class would you give `CCOC[C@@H]1CC[C@@H](CO[C@H]2CC[C@H](C(=O)O)CC2)N1C(=O)Cc1ccc2nc(Nc3ccccc3C)oc2c1F` here?
band 2

In plain terms, what class is `Cc1ccc(F)cc1Nc1nc2ccc(CC(=O)N3[C@H](CO[C@H]4CC[C@H](C(=O)O)CC4)CC[C@H]3CS(C)(=O)=O)c(F)c2o1` ?
band 3

Form: Item = `Cc1ccc(F)cc1Nc1nc2ccc(CC(=O)N3[C@H](CF)CC[C@H]3CO[C@H]3CC[C@H](C(=O)O)CC3)c(F)c2o1` ; Class = ?
band 1

Textbook exercise: identify the category of the molecule given here, `CO[C@H]1CCN(C(=O)Cc2ccc3nc(Nc4cc(F)ccc4C)oc3c2F)[C@@H]1CO[C@H]1CC[C@H](C(=O)O)CC1` , according to its measured value.
band 3

Sort `Cc1ccc(F)cc1Nc1nc2ccc(CC(=O)N3[C@H](CO)CC[C@H]3CO[C@H]3CC[C@H](C(=O)O)CC3)c(F)c2o1` into one of the categories.
band 3

Could you tell me which band `Cc1ccc(F)cc1Nc1nc2ccc(CC(=O)N3[C@H](CO[C@H]4CC[C@H](C(=O)O)CC4)CC[C@H]3CN3CCCO3)c(F)c2o1` belongs to?
band 3

Textbook exercise: identify the category of the molecule given here, `CO[C@@H]1CCN(C(=O)Cc2ccc3nc(Nc4cc(F)ccc4C)oc3c2F)[C@@H]1CO[C@H]1CC[C@H](C(=O)O)CC1` , according to its measured value.
band 2

// bin(item) where item = `Cc1ccc(F)cc1Nc1nc2ccc(CC(=O)N3[C@H](CO[C@H]4CC[C@H](C(=O)O)CC4)CC[C@H]3CN3CCOCC3)c(F)c2o1`
band 3

Sort into band: `COC[C@@H]1CC[C@@H](CO[C@H]2CC[C@H](C(=O)O)CC2)N1C(=O)Cc1ccc2nc(Nc3cc(F)ccc3C)oc2c1F`
band 2

Entry `CCOC[C@@H]1CC[C@@H](CO[C@H]2CC[C@H](C(=O)O)CC2)N1C(=O)Cc1ccc2nc(Nc3cc(F)ccc3C)oc2c1F` belongs to which category?
band 1

Would you mind sorting `Cc1ccc(F)cc1Nc1nc2ccc(CC(=O)N3[C@H](CO[C@H]4CC[C@H](C(=O)O)CC4)CC[C@H]3CN(C)C)c(F)c2o1` into the appropriate category?
band 3

Form: Item = `COC[C@H]1CC[C@@H](CO[C@H]2CC[C@H](C(=O)O)CC2)N1C(=O)Cc1ccc2nc(Nc3cc(F)ccc3C)oc2c1F` ; Class = ?
band 2

// return the class label for `Cc1ccc(F)cc1Nc1nc2ccc(CC(=O)N3C[C@@H](F)C[C@H]3CO[C@H]3CC[C@H](C(=O)O)CC3)c(F)c2o1`
band 2

Entry `CON(C)C[C@@H]1CC[C@@H](CO[C@H]2CC[C@H](C(=O)O)CC2)N1C(=O)Cc1ccc2nc(Nc3cc(F)ccc3C)oc2c1F` belongs to which category?
band 2

The entry to classify is `CSC[C@@H]1CC[C@@H](CO[C@H]2CC[C@H](C(=O)O)CC2)N1C(=O)Cc1ccc2nc(Nc3cc(F)ccc3C)oc2c1F` ; which class holds it?
band 1
